# ASSAY_SUMMARY: NCI Yeast Anticancer Drug Screen. Data for the rad50 strain (AID 155);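 further: 0% = growth of vehicle-only cultures of the same strain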
# SETTINGS: S. cerevisiae rad50 strain growth inhibition; at 50.0 µM; active compounds read high
About 79,000 compounds went through this panel and 15% of them were active in at least one assay; those are over-represented in the sample as a whole.
MEASURED_METRIC: growth inhibition (%)
# value in %; strip the unit string

Some solved cases for reference:
COMPOUND | growth inhibition (%)
CC(=O)NC(Cc1ccccc1)C(=O)Nc1ccccc1C (stereo not drawn) | 9.1
COC(=O)c1n[nH]n(Cc2cccs2)c1=O (tested in a mixture with another compound) | 14.8
CCOC(=O)c1[nH]c2ccc(O)c3c2c1CCC3=O | 30.6
O=CN1CCN(c2ccc3ccc(=O)[nH]c3n2)CC1 | -4.45
COc1ccc2nc3cc(Cl)ccc3c(NCCC3CCCN4CCCCC34)c2c1 (stereo not drawn) | 33
CCOc1ccc2c(c1)nc1ccccc1[n+]2C | 21.6
Nc1nc2cc(COc3ccc(C(=O)O)cc3)ccc2nc1-c1ccccc1 | -28.6
CCCOC(=O)CCBr | -2.55

For the compound shown here, COC(=O)c1cccc2cnccc12 , give the reported growth inhibition.
2.2

Item CC(=O)N(C)c1ccc(NC(=O)Cc2ccccc2)cc1 has what recorded growth inhibition?
12.7

Data request, read-out growth inhibition, for C=C(C)C#CC1(O)C=C(OC)C(OC)=CC1=O (stereo not drawn)
-36.4

Reported growth inhibition for CNCC(=O)Nc1ccc2c(c1)C(=O)c1ccc(NC(=O)CNC)cc1C2=O : what is it?
11.5

State the recorded growth inhibition for this entry: O=C(O)c1ccccc1C(=O)OCC1CCc2ccccc2C1 (stereo not drawn)
5.45

Quick one: growth inhibition of Cc1ccc(N2C(=O)CSC2=S)cc1F ?
1.55

Give the measured growth inhibition of O=C(N/N=C\c1ccc(Cl)c(Cl)c1)c1ccncc1 .
-6.65

Which growth inhibition is reported for this compound? CCCNC(=S)N/N=C/c1cccc(C)n1
-23.3

growth inhibition for Oc1cc2oc3cc(O)c(O)cc3c2cc1O ?
7

Look up growth inhibition: CC(=O)C1=CCC2c3[nH]c4ccccc4c3CCN2C1 (stereo not drawn)
17.6

Would you kindly share the measured growth inhibition for COc1cc(-c2ccc(NC(=O)N3CC3)c(OC)c2)ccc1NC(=O)N1CC1 ?
8.8

Param item = CN(C(=O)c1ccco1)C(=S)N1CCN(c2ccccc2)CC1 ; retrieve measured growth inhibition.
-17

Quick one: growth inhibition of COC(=O)C1(C)CCCC2(C)c3cc(OC)ccc3C(=O)C(Cl)C12 (stereo not drawn) ?
7.8

Any idea what growth inhibition was measured for O=C(O)C1C=CC2OC2C1C(=O)O (stereo not drawn) ?
2.9

Which growth inhibition reading was recorded for the compound Nc1ccncc1CCc1ccccc1 ?
5.5

# growth inhibition lookup, item N=c1c2ccccc2nc2oc3ccc(Cl)cc3n12
-15.4

Bench note: what growth inhibition did COc1ccc(Cl)[n+]([O-])n1 show?
-20.3

I'd like to know its growth inhibition. The compound in question is CN(C)CCNC(=O)c1cccc(C(=O)Nc2ccccc2)c1[N+](=O)[O-]
13.7

Which growth inhibition is reported for this compound? O=c1c(CN(CCO)CCO)c(-c2ccccc2)sc2ccccc12
-3.45

Request the reported growth inhibition associated with C=CCC1(C(C)C(O)c2cc(OC)c(OC)c(OC)c2)CC(O)C=CC12OCCO2 (stereo not drawn)
13.9

Quick one: growth inhibition for O=C(Nc1nc(C23CC4CC(CC(C4)C2)C3)cs1)c1cc2ccc(O)cc2oc1=O ?
0.7

Please report the recorded growth inhibition for [N-]=[N+]=NC(=O)C1C(c2ccccc2)=C1c1ccccc1 .
45.5

Please give the measured growth inhibition for this compound: CCOC(CN=Cc1ccc2c(c1)Sc1ccccc1O2)OCC
73.1

* * *

# growth inhibition per entry
# ASSAY_SUMMARY: NCI Yeast Anticancer Drug Screen. Data for the sgs1 mgt1 strain (AID 161);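 further: 0% = growth of cultures given vehicle only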
# SETTINGS: S. cerevisiae sgs1 mgt1 strain, at 50.0 µM, active compounds read high
The panel holds about 79,000 compounds, 15% with a hit somewhere; the sample as a whole holds those more often.
Output spec: scalar in %, unitless text.

Before answering, review these 5 worked examples.
MOLECULE | MEASURED_METRIC | U | OBSERVED_MEASUREMENT
Cc1ccc(C(=O)N/N=C/c2ccc3ccccc3c2)cc1 | growth inhibition | % | -5.25
Cc1cccc2c1NC(=O)C2=O | growth inhibition | % | -2.8
CC1CC(C)(C)NC(C2CCC=CO2)O1 (configuration not stated) | growth inhibition | % | -7
C/C(=N\NC(N)=S)c1ccc(/C(C)=N/NC(N)=S)cc1 | growth inhibition | % | 0.8
O=c1cc(-c2ccccc2)[nH]c2nccn12 | growth inhibition | % | -53.1

So what does the record say about growth inhibition for CCCCCCCC(=O)Nc1nnc(SCCCCCCCCCCSc2nnc(NC(=O)CCCCCCC)s2)s1 ?
-5.55

Return reported growth inhibition; argument: c1ccc(CN[C@]23C4C5CC6C7C5C2C7[C@@](NCc2ccccc2)(C64)N3Cc2ccccc2)cc1 (some centres not stated)
-11.8

Recorded growth inhibition for O=c1cc(NCc2cccc([N+](=O)[O-])c2)[nH]c(=O)[nH]1 , please?
5.05

Field request: growth inhibition | item: Cc1cc(O)c(C)c(C)c1C
4.5

Entry CCCCC(CC)CCC(C)=O (configuration not stated) : reported growth inhibition = ?
0.35

Find the recorded growth inhibition belonging to CCOC(=O)CS(=O)(=O)C1CCCCC1c1cc(OC)c(OC)c(OC)c1 (configuration not stated) and report it.
-5

Any idea what its growth inhibition is? The molecule is C=C(C)C(=O)OC1C/C(CO)=C\C(O)C/C(C)=C/C2OC(=O)C(=C)C21 (configuration not stated)
33.7

* * *

Below: a set of entries, each annotated with reported growth inhibition.
# ASSAY_SUMMARY: NCI Yeast Anticancer Drug Screen. Data for the mlh1 rad18 strain (AID 175)
# SETTINGS: S. cerevisiae mlh1 rad18 strain growth inhibition; at 50.0 µM; active compounds read high
Compounds without any hit were thinned out: in the full panel of roughly 79,000, 15% have a hit.
Kindly provide the numeric value in % only, without the unit symbol.

The cases that follow already have their growth inhibition on record.
MOLECULE | U | growth inhibition
O=c1ccnc2c1ccc1[nH]cccc12 | % | 13.3
O=[N+]([O-])c1ccc(S(=O)(=O)n2cccc2)cc1 | % | -19.8

Looking for the measured growth inhibition of O=C(COCC(=O)N/N=C/c1ccc(Cl)cc1Cl)N/N=C\c1cc(Cl)cc(Cl)c1 , can you help?
-12.2

What growth inhibition value was documented for this molecule, O=C(O)c1cccnc1C(=O)Nc1cccc2ccccc12 ?
-16.6

Need growth inhibition, item O=C(O)c1cc([N+](=O)[O-])ccc1Oc1cccc([N+](=O)[O-])c1
-8.25

Would you mind telling me what growth inhibition value was observed for Cc1ccc(NC(=O)c2cccc(C(=O)Nc3ccc(C)c(Cl)c3)c2)cc1Cl ?
8.6

Fill in: growth inhibition of c1ccc2cc3c(cc2c1)[nH]c1ccccc13 is ___
14.8

Fill blank: measured growth inhibition of the molecule Cc1ccc(S(=O)(=O)N/N=C2\CCC3(C)C(CCC4C3CCC3(C)C(C(C)CCCC(C)C)CCC43)C2)cc1 (stereo unspecified) is ____.
33.9

* * *

Parameter: growth inhibition. Scope: all listed entries.
# ASSAY_SUMMARY: NCI Yeast Anticancer Drug Screen. Data for the sgs1 mgt1 strain (AID 161);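 further: 0% = growth of cultures given vehicle only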
# SETTINGS: S. cerevisiae sgs1 mgt1 strain, at 50.0 µM, active compounds read high
This is part of a sample that, as a whole, favours compounds with a hit. Of some 79,000 tested, about 15% had one in any assay.
Numeric answer only, unit % assumed.

COMPOUND | growth inhibition / %
COc1ccc(-n2c(C)c(COC(C)=O)c(COC(C)=O)c2C)cc1 | -0.55
COc1cccc(NC(=O)CC(=O)NN2C(=O)/C(=C/c3ccc(N(CCC#N)CCC#N)cc3)N=C2c2cc([N+](=O)[O-])ccc2Cl)c1 | 16.4
CCCCCCc1cc(C(=O)N/N=C/c2ccccc2O)c2ccccc2n1 | 16
COc1cc2c(c(Cl)c1O)C(=O)OC2 | 12.8
Cc1nc(C(N)=S)sc1C(=O)CC(=O)C(=O)Nc1cccc(Cl)c1C | -10.2
COc1cc2c(cc1OC)C(c1ccc(N=Cc3ccc(N(C)C)cc3)cc1)N(C(=S)Nc1cc(Cl)ccc1Cl)CC2 (configuration not stated) | 40.7

Name the recorded growth inhibition for OCCCC1CCN(CCO)CC1 .
-18.8

* * *

# ASSAY_SUMMARY: NCI Yeast Anticancer Drug Screen. Data for the cln2 rad14 strain (AID 165);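 further: 0% = growth equal to vehicle treated cultures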
# SETTINGS: S. cerevisiae cln2 rad14 strain, at 50.0 µM, active compounds read high
The panel holds about 79,000 compounds, 15% with a hit somewhere; the sample as a whole holds those more often.
Known growth inhibition of a selection of molecules
# unit: % | format: bare number

MOLECULE | growth inhibition / %
O=[N+]([O-])c1ccc(N(CCO)CCO)nc1 | 19.5
CCC(C)C1SCC(=O)N1c1nncs1 (centres undefined) | -4.6
CCN(CC)CCCNc1c2c(nc3ccc(Cl)cc13)CCCC2 | -8.1
CN(C)C(=O)Nc1cccc(OC(=O)NCCCl)c1 | 0.9
CCOC(=O)c1cnc(C)nc1Nc1ccccc1 | -21.4
Clc1ccc(-n2cccc2)cc1 | 5.8
BrC1=C(c2ccccc2)C2CCCCC2C1(Br)c1ccccc1 (centres undefined) | 96.9
CCCCNC(=S)/N=C/c1c(O)c2ccccc2[nH]c1=O | -18.9

Can you look up the measured growth inhibition of Clc1cccc[n+]1CCc1ccccc1 for me?
-4.55

Given CC(=O)NCC1OC2COC(c3ccccc3)OC2C2N=C(c3ccccc3)OC12 (centres undefined) , state its recorded growth inhibition.
7.8
